// data source = paper PMC6212790

I'd be grateful if you could share measured binding signal for these entries.
EXPERIMENTAL SYSTEM: GST-Rok (full length) (Bacillus subtilis subsp. subtilis str. …, UniProt O34857 1-191)
Sequence: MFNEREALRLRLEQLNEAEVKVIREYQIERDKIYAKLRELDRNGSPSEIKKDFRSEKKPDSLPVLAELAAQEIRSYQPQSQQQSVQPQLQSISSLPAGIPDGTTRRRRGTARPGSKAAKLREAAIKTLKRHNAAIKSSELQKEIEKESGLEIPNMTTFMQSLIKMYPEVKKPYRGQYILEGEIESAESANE
ASSAY: protein binding microarray; high values mean tight binding
CONDITION CONTEXT: protein: recombinant; tags: GST (pTH5325, pDEST15-Magic modified); dsDNA, one strand shown
Over roughly 33,000 sequences, “e-score” has its median near -0.037; the highest 2% begin near 0.34. Shown is part of a subset that was picked to be rich in the highest values.
Numbers only; they are read as E-score.

Request: // Input: ATTCGTTA . Output its binding signal only.
Result: 0.228

Request: Specify measured binding signal for CCGACCAA .
Result: -0.12

Request: Dear colleague, please send me the reported binding signal for CAAATCTA when you can.
Result: 0.377

Request: For the sequence AAGCAAAA , give its reported binding signal.
Result: 0.0376

Request: Answer with the recorded binding signal for the sequence listed here: GAAATCTC
Result: 0.209

* * *

Exercise: for every item that follows, state its recorded binding signal.
EXPERIMENTAL SYSTEM: GST-Rok (full length) (Bacillus subtilis subsp. subtilis str. …, UniProt O34857 1-191)
Sequence: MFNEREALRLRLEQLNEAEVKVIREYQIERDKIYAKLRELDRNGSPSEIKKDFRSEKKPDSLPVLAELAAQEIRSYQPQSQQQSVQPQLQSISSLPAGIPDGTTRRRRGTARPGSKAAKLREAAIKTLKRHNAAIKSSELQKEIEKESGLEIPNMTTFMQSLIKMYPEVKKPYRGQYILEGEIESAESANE
ASSAY: protein binding microarray; high values mean tight binding
CONDITION CONTEXT: protein: recombinant; tags: GST (pTH5325, pDEST15-Magic modified); dsDNA, one strand shown
In all, about 33,000 sequences were measured (“e-score”: median about -0.037, highest 2% from about 0.34 on). Shown is part of a subset that was picked to be rich in the highest values.
Field format: number, assumed E-score, no unit text.

Request: Find binding signal for CCGTTTTA on GST-Rok (full length) (Bacillus subtilis subsp. subtilis str. …, UniProt O34857 1-191) and write it down.
Result: 0.0815

Request: Give the observed binding signal of AATGTAAT for GST-Rok (full length) (Bacillus subtilis subsp. subtilis str. …, UniProt O34857 1-191).
Result: 0.326

Request: Enter measured binding signal, system GST-Rok (full length) (Bacillus subtilis subsp. subtilis str. …, UniProt O34857 1-191), for the sequence shown: CCGCTAGG
Result: -0.19

Request: Enter binding signal (test system GST-Rok (full length) (Bacillus subtilis subsp. subtilis str. …, UniProt O34857 1-191)) for ATATACCA
Result: 0.411

Request: Check GST-Rok (full length) (Bacillus subtilis subsp. subtilis str. …, UniProt O34857 1-191) data and give binding signal for AAGTTTGA .
Result: -0.0342

Request: Report value only: binding signal, GST-Rok (full length) (Bacillus subtilis subsp. subtilis str. …, UniProt O34857 1-191), CGTGGAGA
Result: 0.119

Request: Please report binding signal with GST-Rok (full length) (Bacillus subtilis subsp. subtilis str. …, UniProt O34857 1-191) for item GATGTAGC .
Result: 0.0838

Request: Report measured binding signal on GST-Rok (full length) (Bacillus subtilis subsp. subtilis str. …, UniProt O34857 1-191); entry: ATATACCG
Result: 0.385

Request: Fill in: binding signal on GST-Rok (full length) (Bacillus subtilis subsp. subtilis str. …, UniProt O34857 1-191), entry AGCTACAA
Result: 0.205

Request: Provide the reported binding signal (system: GST-Rok (full length) (Bacillus subtilis subsp. subtilis str. …, UniProt O34857 1-191)) for ATGGTACG
Result: 0.183

Request: Under GST-Rok (full length) (Bacillus subtilis subsp. subtilis str. …, UniProt O34857 1-191), report binding signal for CTGTTATA
Result: 0.308

* * *

Give binding signal for every item shown.
EXPERIMENTAL SYSTEM: GST-Rok (full length) (Bacillus subtilis subsp. subtilis str. …, UniProt O34857 1-191)
Sequence: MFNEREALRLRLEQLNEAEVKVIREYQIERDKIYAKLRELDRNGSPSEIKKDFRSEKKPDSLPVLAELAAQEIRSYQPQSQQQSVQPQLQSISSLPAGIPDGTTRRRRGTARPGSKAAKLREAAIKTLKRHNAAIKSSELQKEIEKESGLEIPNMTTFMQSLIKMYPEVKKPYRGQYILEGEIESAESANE
ASSAY: protein binding microarray; Rok is a gene silencer of Bacillus subtilis; high values mean tight binding
CONDITION CONTEXT: protein: recombinant; tags: GST (pTH5325, pDEST15-Magic modified); dsDNA, one strand shown
In all, about 33,000 sequences were measured (“e-score”: median about -0.037, highest 2% from about 0.34 on). The sample as a whole holds a higher share of the highest values than the screen did.

Request: Please report the measured binding signal for ATTGTTAC
Result: 0.15 E-score

Request: Entry GTCGTTTA needs its binding signal filled in; supply it.
Result: 0.0636 E-score

Request: Give the reported value of binding signal for this record: CAAACTTA
Result: 0.162 E-score

Request: Report measured binding signal; entry is GATAATTA
Result: 0.223 E-score

Request: Specify measured binding signal for ACCATAGT .
Result: 0.207 E-score

Request: For the sequence AACTACCA , give its reported binding signal.
Result: 0.432 E-score

Request: Give recorded binding signal. GCTAGACA
Result: 0.0674 E-score

Request: Consider the sequence CCCAGTAG . State its measured binding signal.
Result: 0.151 E-score

Request: Determine its reported binding signal: GTAACTAA
Result: 0.304 E-score

Request: Determine from records and report binding signal for CTAATGAC
Result: -0.05 E-score

Request: Tell us which binding signal value is on record for ATAACTAC
Result: 0.316 E-score

Request: # return recorded binding signal for entry AAAACTAC
Result: 0.453 E-score

Request: For the sequence ATATTTTG , give its reported binding signal.
Result: 0.297 E-score

Request: Provide measured binding signal value, entry: ACGAGTCC
Result: -0.192 E-score

Request: Specify measured binding signal for CTCGCGAG .
Result: -0.0252 E-score

Request: Look up and state reported binding signal for CATCTTAG
Result: 0.118 E-score

Request: Output binding signal of GTATTTTA
Result: 0.411 E-score

Request: For AAAACTCC , write its binding signal.
Result: 0.0005 E-score

Request: State its binding signal: AAAACTAA
Result: 0.254 E-score

Request: Tell us which binding signal value is on record for ATGCATTG
Result: 0.0725 E-score

Request: Please indicate binding signal recorded for CAACTGTG
Result: -0.0366 E-score

Request: Give binding signal for the following sequence: ATTAATGG
Result: 0.0209 E-score

Request: Hello, please tell me recorded binding signal for this one: GCAACTAC
Result: 0.308 E-score

Request: Report measured binding signal; entry is ACTCGCAC
Result: -0.112 E-score

Request: Please report the measured binding signal for ATTTATGG
Result: 0.218 E-score

Request: Specify reported binding signal for the sequence shown: AAGTATAC
Result: 0.251 E-score

Request: // fetch binding signal given entry AGTTGCGA
Result: 0.0582 E-score

Request: Give the reported binding signal for this sequence. AAGTATAG
Result: 0.127 E-score

Request: Entry CCTATAGA needs its binding signal filled in; supply it.
Result: 0.0582 E-score

Request: Input TATAAATA , output reported binding signal.
Result: 0.397 E-score

Request: Determine from records and report binding signal for CTATTTTC
Result: 0.344 E-score

Request: Name the recorded binding signal of the sequence listed here: TACGAGAA
Result: 0.113 E-score

Request: Provide measured binding signal value, entry: ACCGATAC
Result: 0.117 E-score

Request: Supply recorded binding signal for ACTAGATC here.
Result: 0.327 E-score

Request: For the sequence GGTAATTA , give its measured binding signal value.
Result: 0.375 E-score

Request: Give the reported value of binding signal for this record: AAACGTCT
Result: -0.171 E-score

Request: Give reported binding signal value for CAGGACGG
Result: -0.164 E-score

Request: Quote binding signal reported for AAAATAGA please.
Result: 0.325 E-score

Request: Specify reported binding signal for the sequence shown: GTTTGTAA
Result: 0.172 E-score

Request: Entry CTATTTTA needs its binding signal filled in; supply it.
Result: 0.325 E-score

Request: Identify measured binding signal associated with GCCATTCA
Result: 0.0688 E-score

Request: Quick one: give measured binding signal for CTGCTTTA
Result: 0.0813 E-score

Request: Tell us which binding signal value is on record for TCTTAAGA
Result: 0.00924 E-score

Request: Given ATTTATAC , respond with its binding signal.
Result: 0.356 E-score

Request: Quickly give me recorded binding signal for AAAACTAG
Result: 0.334 E-score

Request: Write down binding signal measured for item AAAATAGC
Result: 0.179 E-score

Request: Answer with the recorded binding signal of CTAACTAC only.
Result: 0.397 E-score

Request: Quickly give me recorded binding signal for ATTAACCG
Result: 0.0492 E-score

Request: # return recorded binding signal for input GGAGGTGA
Result: -0.124 E-score

Request: Note binding signal for the sequence shown: GCTGTAAA
Result: 0.151 E-score

Request: Provide binding signal value for the following sequence: CACTACCA
Result: 0.221 E-score

Request: Fill in binding signal for record ATTTATAA
Result: 0.333 E-score

Request: Input AGATAGTG , output reported binding signal.
Result: 0.199 E-score

Request: Identify measured binding signal corresponding to GTTATCTA
Result: 0.285 E-score

Request: Input CACTACCG , output reported binding signal.
Result: 0.0654 E-score

Request: Answer with the recorded binding signal of AAGGGTTA only.
Result: -0.101 E-score

Request: Indicate its recorded binding signal; the sequence in question is ACATACTA
Result: 0.361 E-score

Request: Supply measured binding signal of GATAAATA in your reply.
Result: 0.313 E-score

Request: Answer with the recorded binding signal of ACCTACCT only.
Result: 0.271 E-score

Request: Supply measured binding signal of AAAACTAT in your reply.
Result: 0.433 E-score

Request: Kindly indicate its recorded binding signal. Item: ACTAGTGA
Result: 0.172 E-score

Request: Read the entry ACCTATGA and write its reported binding signal.
Result: 0.118 E-score

Request: Tell us which binding signal value is on record for GTATTTAA
Result: 0.285 E-score

Request: Dear colleague, please send me the reported binding signal for AGCGTACT when you can.
Result: 0.0975 E-score

Request: Give me measured binding signal, please, for this sequence: CAAACTAG
Result: 0.329 E-score

Request: // fetch binding signal given entry ACTAGATG
Result: 0.339 E-score

Request: // Input: ACTAGTAA . Output its binding signal only.
Result: 0.382 E-score

Request: Return value of binding signal for input AGTTATAC , no commentary.
Result: 0.329 E-score

Request: Give a short answer stating reported binding signal for AGCACTGC .
Result: -0.181 E-score

Request: Quote binding signal reported for ACGTATAA please.
Result: 0.244 E-score

Request: Identify the reported binding signal for the following entry. GCAGTCTA
Result: 0.0175 E-score

Request: Please indicate binding signal recorded for CTAGAGAA
Result: 0.193 E-score

Request: Fill in reported binding signal for this entry: GTATGTGA
Result: 0.247 E-score
